Test system: THP-1 cells
Experimental protocol: THP-1 cell assay: LPS-stimulated pSer78-Hsp27 ELISA
Assay type: cell-based
Experimental setup: Homo sapiens, PMA-differentiated THP-1 cells, compound 60 min before 20 ng/mL LPS for 30 min
Parameter measured: IC50

>  <Compound>
CN1CC(N2CCN(c3ccc4c(c3)Cn3cc(-c5ccc(C#N)cc5)cc3-c3nccn3-4)C2=O)C1 [Example 58]

>  <Result>
< 0.05 µM

$$$$
>  <Compound>
CN(C)C[C@@H]1CCN(c2ccc3c(c2)Cn2cc(-c4ccc(C#N)cc4)cc2-c2nccn2-3)C1=O (single isomer, unassigned) [Example 36]

>  <Result>
< 0.05 µM

$$$$
>  <Compound>
N#Cc1ccc(-c2cc3n(c2)Cc2cc(N4C[C@@H](C5(N)CC5)CC4=O)ccc2-n2ccnc2-3)cc1 [Example 50]

>  <Result>
0.05 to 0.1 µM

$$$$
>  <Compound>
CC(C)(C)NC[C@@H]1CN(c2ccc3c(c2)Cn2cc(-c4ccc(C#N)cc4)cc2-c2nccn2-3)C(=O)O1 [Example 4]

>  <Result>
< 0.05 µM

$$$$
>  <Compound>
N#Cc1ccc(-c2cc3n(c2)Cc2cc(C(=O)N4CC(C#N)C4)ccc2-n2ccnc2-3)cc1 [Example 110]

>  <Result>
0.05 to 0.1 µM

$$$$
>  <Compound>
CN(C)C[C@@H]1CC(=O)N(c2ccc3c(c2)Cn2cc(-c4ccc(C#N)cc4)cc2-c2nccn2-3)C1 [Example 17]

>  <Result>
0.2 to 0.3 µM

$$$$
>  <Compound>
CN1CCC(NC(=O)c2ccc3c(c2)Cn2cc(-c4ccc(C#N)cc4)cc2-c2nccn2-3)C1 (stereo not shown) [Example 105]

>  <Result>
0.5 to 1 µM

$$$$

----------
Entries and their measured pIC50 follow.
Assayed system: MAPKAPK2 Recombinant Human Protein (Homo sapiens)
Sequence (P49137 whole entry): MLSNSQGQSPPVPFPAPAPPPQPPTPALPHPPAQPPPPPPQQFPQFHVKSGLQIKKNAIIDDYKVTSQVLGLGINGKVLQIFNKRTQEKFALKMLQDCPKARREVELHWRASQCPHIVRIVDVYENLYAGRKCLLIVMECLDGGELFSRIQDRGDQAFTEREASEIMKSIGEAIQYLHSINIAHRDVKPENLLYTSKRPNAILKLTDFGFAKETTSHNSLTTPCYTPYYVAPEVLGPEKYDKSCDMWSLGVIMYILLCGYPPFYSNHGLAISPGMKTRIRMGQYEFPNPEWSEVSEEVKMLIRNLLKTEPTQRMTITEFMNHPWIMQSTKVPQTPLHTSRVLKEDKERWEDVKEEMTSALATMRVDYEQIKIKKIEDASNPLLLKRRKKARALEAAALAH
Experimental protocol: MK2 kinase assay (Z'-LYTE kinase assay kit)
Experimental setup: inhibition of MK2 biochemical activity; 90 min incubation at room temperature
pIC50: −log10 of the molar value.

>  <Compound>
CN(C)[C@H]1CCN(C(=O)Nc2ccc3c(c2)Cn2cc(-c4ccc(C#N)cc4)cc2-c2nccn2-3)C1 [Example 73]

>  <Assayed system>
MAPKAPK2 Recombinant Human Protein (Homo sapiens)

>  <pIC50>
> 7.30

$$$$
>  <Compound>
CC(C)N1CCC(C(=O)Nc2ccc3c(c2)Cn2cc(-c4ccc(C#N)cc4)cc2-c2nccn2-3)C1 (stereo not drawn) [Example 77]

>  <Assayed system>
MAPKAPK2 Recombinant Human Protein (Homo sapiens)

>  <pIC50>
7.00 to 7.30

$$$$
>  <Compound>
CC1(C2CC(=O)N(c3ccc4c(c3)Cn3cc(-c5ccc(C#N)cc5)cc3-c3nccn3-4)C2)CCN1 (stereo not drawn) [Example 62]

>  <Assayed system>
MAPKAPK2 Recombinant Human Protein (Homo sapiens)

>  <pIC50>
> 7.30

$$$$
>  <Compound>
CC(C)(N)CNC(=O)c1ccc2c(c1)Cn1cc(-c3ccc(C#N)cc3)cc1-c1nccn1-2 [Example 111]

>  <Assayed system>
MAPKAPK2 Recombinant Human Protein (Homo sapiens)

>  <pIC50>
6.52 to 6.70

$$$$
>  <Compound>
N#Cc1ccc(-c2cc3n(c2)Cc2cc(N4CCN(C5CC5)CC4=O)ccc2-n2ccnc2-3)cc1 [Example 31]

>  <Assayed system>
MAPKAPK2 Recombinant Human Protein (Homo sapiens)

>  <pIC50>
7.00 to 7.30

$$$$
>  <Compound>
CN(C)CC1CC(=O)N(c2cc3c(cc2F)-n2ccnc2-c2cc(-c4ccc(C#N)cc4)cn2C3)C1 (stereo in doubt) [Example 91]

>  <Assayed system>
MAPKAPK2 Recombinant Human Protein (Homo sapiens)

>  <pIC50>
7.00 to 7.30

$$$$
>  <Compound>
CN(C)C1CN(C(=O)c2ccc3c(c2)Cn2cc(-c4ccc(C#N)cc4)cc2-c2nccn2-3)C1 [Example 104]

>  <Assayed system>
MAPKAPK2 Recombinant Human Protein (Homo sapiens)

>  <pIC50>
6.52 to 6.70

$$$$
>  <Compound>
CN1CC(C)(NC(=O)c2ccc3c(c2)Cn2cc(-c4ccc(C#N)cc4)cc2-c2nccn2-3)C1 [Example 129]

>  <Assayed system>
MAPKAPK2 Recombinant Human Protein (Homo sapiens)

>  <pIC50>
6.70 to 7.00

$$$$
>  <Compound>
CN1CCN(C(=O)c2ccc3c(c2)Cn2cc(-c4ccc(C#N)cc4)cc2-c2nccn2-3)CC1 [Example 107]

>  <Assayed system>
MAPKAPK2 Recombinant Human Protein (Homo sapiens)

>  <pIC50>
6.52 to 6.70

$$$$
>  <Compound>
CN(C)C[C@@H]1CCN(c2ccc3c(c2)Cn2cc(-c4ccc(C#N)cc4)cc2-c2nccn2-3)C1=O (single isomer, unassigned) [Example 36]

>  <Assayed system>
MAPKAPK2 Recombinant Human Protein (Homo sapiens)

>  <pIC50>
> 7.30

$$$$
>  <Compound>
N#Cc1ccc(-c2cc3n(c2)Cc2cc(N4C[C@@H](N)CC4=O)ccc2-n2ccnc2-3)cc1 [Example 32]

>  <Assayed system>
MAPKAPK2 Recombinant Human Protein (Homo sapiens)

>  <pIC50>
7.00 to 7.30

$$$$
>  <Compound>
CN(C)[C@H]1CCCN(C(=O)c2ccc3c(c2)Cn2cc(-c4ccc(C#N)cc4)cc2-c2nccn2-3)C1 [Example 125]

>  <Assayed system>
MAPKAPK2 Recombinant Human Protein (Homo sapiens)

>  <pIC50>
7.00 to 7.30

$$$$
>  <Compound>
C[C@H]1[C@@H](CN(C)C)OC(=O)N1c1ccc2c(c1)Cn1cc(-c3ccc(C#N)cc3)cc1-c1nccn1-2 [Example 61]

>  <Assayed system>
MAPKAPK2 Recombinant Human Protein (Homo sapiens)

>  <pIC50>
7.00 to 7.30

$$$$
>  <Compound>
N#Cc1ccc(-c2cc3n(c2)Cc2cc(N4C[C@H](CO)NCC4=O)ccc2-n2ccnc2-3)cc1 [Example 80]

>  <Assayed system>
MAPKAPK2 Recombinant Human Protein (Homo sapiens)

>  <pIC50>
7.00 to 7.30

$$$$
>  <Compound>
CN(C)C1CCN(C(=O)Nc2ccc3c(c2)Cn2cc(-c4ccc(C#N)cc4)cc2-c2nccn2-3)C1 (stereo not drawn) [Example 72]

>  <Assayed system>
MAPKAPK2 Recombinant Human Protein (Homo sapiens)

>  <pIC50>
> 7.30

$$$$

----------
Tested on: THP-1 cells
Experimental protocol: THP-1 cell assay: LPS-stimulated pSer78-Hsp27 ELISA
Format: cell-based
Experimental setup: Homo sapiens, PMA-differentiated THP-1 cells, compound 60 min before 20 ng/mL LPS for 30 min
Entries and their measured IC50 follow.
Parameter measured: IC50

>  <Molecule>
CN(C)C[C@H]1[C@@H]2CN(c3ccc4c(c3)Cn3cc(-c5ccc(C#N)cc5)cc3-c3nccn3-4)C(=O)[C@H]12

>  <Result>
200 to 300 nM

$$$$
>  <Molecule>
CN(C)CC[C@H]1CCN(c2ccc3c(c2)Cn2cc(-c4ccc(C#N)cc4)cc2-c2nccn2-3)C1=O (single isomer, unassigned)

>  <Result>
< 50 nM

$$$$
>  <Molecule>
CN(C)[C@H]1C[C@@H](N2CCN(c3ccc4c(c3)Cn3cc(-c5ccc(C#N)cc5)cc3-c3nccn3-4)C2=O)C1

>  <Result>
50 to 100 nM

$$$$
>  <Molecule>
CN1CC2(CC(=O)N(c3ccc4c(c3)Cn3cc(-c5ccc(C#N)cc5)cc3-c3nccn3-4)C2)C1

>  <Result>
200 to 300 nM

$$$$
>  <Molecule>
CN(C)CCn1ccn(-c2ccc3c(c2)Cn2cc(-c4ccc(C#N)cc4)cc2-c2nccn2-3)c1=O

>  <Result>
500 to 1000 nM

$$$$
>  <Molecule>
CCNC[C@H]1CC(=O)N(c2ccc3c(c2)Cn2cc(-c4ccc(C#N)cc4)cc2-c2nccn2-3)C1

>  <Result>
100 to 200 nM

$$$$
>  <Molecule>
N#Cc1ccc(-c2cc3n(c2)Cc2cc(N4C[C@@H](CNC5COC5)CC4=O)ccc2-n2ccnc2-3)cc1

>  <Result>
100 to 200 nM

$$$$
>  <Molecule>
CN1CC(N2C(=O)CN(c3ccc4c(c3)Cn3cc(-c5ccc(C#N)cc5)cc3-c3nccn3-4)C2=O)C1

>  <Result>
< 50 nM

$$$$
>  <Molecule>
CC(C)(C)NC[C@H]1CC(=O)N(c2ccc3c(c2)Cn2cc(-c4ccc(C#N)cc4)cc2-c2nccn2-3)C1

>  <Result>
100 to 200 nM

$$$$
>  <Molecule>
CN(C)C[C@H]1C[C@@]12CCN(c1ccc3c(c1)Cn1cc(-c4ccc(C#N)cc4)cc1-c1nccn1-3)C2=O

>  <Result>
200 to 300 nM

$$$$
>  <Molecule>
N#Cc1ccc(-c2cc3n(c2)Cc2cc(N4C[C@H]5CNC[C@H]5C4=O)ccc2-n2ccnc2-3)cc1 (relative stereo)

>  <Result>
200 to 300 nM

$$$$
>  <Molecule>
CN(C)C1CCN(C(=O)Nc2ccc3c(c2)Cn2cc(-c4ccc(C#N)cc4)cc2-c2nccn2-3)C1 (stereo not shown)

>  <Result>
< 50 nM

$$$$
>  <Molecule>
N#Cc1ccc(-c2cc3n(c2)Cc2cc(N4C[C@@H](CN5CCC5)CC4=O)ccc2-n2ccnc2-3)cc1

>  <Result>
< 50 nM

$$$$
>  <Molecule>
CC1(C)CCN1C[C@@H]1CN(c2ccc3c(c2)Cn2cc(-c4ccc(C#N)cc4)cc2-c2nccn2-3)C(=O)O1

>  <Result>
< 50 nM

$$$$
>  <Molecule>
N#Cc1ccc(-c2cc3n(c2)Cc2cc(N4C[C@@H](CN5CC(O)C5)CC4=O)ccc2-n2ccnc2-3)cc1

>  <Result>
50 to 100 nM

$$$$
>  <Molecule>
CN(C)C(C)(C)[C@H]1CC(=O)N(c2ccc3c(c2)Cn2cc(-c4ccc(C#N)cc4)cc2-c2nccn2-3)C1

>  <Result>
< 50 nM

$$$$
>  <Molecule>
Cc1nnc2n1-c1ccc(N3C[C@@H](CN4CCC4)CC3=O)cc1Cn1cc(-c3ccc(C#N)cc3)cc1-2

>  <Result>
300 to 400 nM

$$$$
>  <Molecule>
CN(C)CC1(C)CC(=O)N(c2ccc3c(c2)Cn2cc(-c4ccc(C#N)cc4)cc2-c2nccn2-3)C1 (stereo not shown)

>  <Result>
400 to 500 nM

$$$$
>  <Molecule>
CC(C)(N)C[C@H]1CCN(c2ccc3c(c2)Cn2cc(-c4ccc(C#N)cc4)cc2-c2nccn2-3)C1=O

>  <Result>
300 to 400 nM

$$$$
>  <Molecule>
CN(C)[C@H]1CCN(C(=O)Nc2ccc3c(c2)Cn2cc(-c4ccc(C#N)cc4)cc2-c2nccn2-3)C1

>  <Result>
< 50 nM

$$$$
>  <Molecule>
N#Cc1ccc(-c2cc3n(c2)Cc2cc(N4C[C@@H](CN5CC(F)C5)CC4=O)ccc2-n2ccnc2-3)cc1

>  <Result>
500 to 1000 nM

$$$$
>  <Molecule>
CN(C)[C@@H]1CCN(C(=O)Nc2ccc3c(c2)Cn2cc(-c4ccc(C#N)cc4)cc2-c2nccn2-3)C1

>  <Result>
50 to 100 nM

$$$$
>  <Molecule>
CNC[C@@H]1CCN1C(=O)c1ccc2c(c1)Cn1cc(-c3ccc(C#N)cc3)cc1-c1nccn1-2

>  <Result>
200 to 300 nM

$$$$
>  <Molecule>
CN(C)CCNC(=O)c1ccc2c(c1)Cn1cc(-c3ccc(C#N)cc3)cc1-c1nccn1-2

>  <Result>
100 to 200 nM

$$$$
>  <Molecule>
N#Cc1ccc(-c2cc3n(c2)Cc2cc(N4C[C@@H](CN)CC4=O)ccc2-n2ccnc2-3)cc1

>  <Result>
300 to 400 nM

$$$$
>  <Molecule>
N#Cc1ccc(-c2cc3n(c2)Cc2cc(N4C[C@@H](CN5CCC(F)C5)CC4=O)ccc2-n2ccnc2-3)cc1 (stereo partly shown)

>  <Result>
100 to 200 nM

$$$$
>  <Molecule>
CN(C)CCn1cnn(-c2ccc3c(c2)Cn2cc(-c4ccc(C#N)cc4)cc2-c2nccn2-3)c1=O

>  <Result>
100 to 200 nM

$$$$
>  <Molecule>
N#Cc1ccc(-c2cc3n(c2)Cc2cc(N4C[C@@H](CNC5CC5)CC4=O)ccc2-n2ccnc2-3)cc1

>  <Result>
< 50 nM

$$$$
